tested on: SR; test: NCI tumour cell line growth inhibition, 48 h
The source made the active and inactive calls. Rule as the data show it: active = GI50 up to about 1.1 µM and inactive = higher.
measurement_name: GI50

{"columns": ["molecule", "measured_on", "reading"],
 "data": [
  ["O=C(Nc1ccccc1C(=O)O)C(=Cc1ccccc1O)NC(=O)c1ccccc1", "SR", "> 100 µM (inactive)"],
  ["COc1ccc2c(c1)[n+]([O-])c(C(=O)C/C(=N\\NC(=O)C[N+](C)(C)C)C(=O)Nc1cc(Cl)ccc1Cl)c(C)[n+]2[O-]", "SR", "43.3 µM (inactive)"],
  ["O=C(CNc1ccc(Cl)cc1Cl)NC1C=Cc2ccc(S(=O)(=O)Nc3ccc(Cl)cc3Cl)cc2C1=O (stereo not given)", "SR", "> 100 µM (inactive)"],
  ["COc1cccc2cc(C(=O)NC34CC5CC(CC(C5)C3)C4)c(=N)oc12", "SR", "10.2 µM (inactive)"],
  ["Cc1ccc(-n2c(N)c(C#N)c3[nH]nc(N)c3c2=O)cc1", "SR", "> 10 µM (inactive)"]
]}

----------
system: CCRF-CEM; experiment: NCI tumour cell line growth inhibition, 48 h
The source made the active and inactive calls. No stated cut-off is given here; in the data, active = GI50 up to about 1.1 µM and inactive = higher.
Outcomes: active, inactive

{"columns": ["compound", "answer_label"],
 "data": [
  ["O=C(O)COc1ccccc1C(=O)Nc1ccccc1", "inactive"],
  ["COc1ccc2nc(C)cc(NCCCCCCCCCNc3cc(C)nc4ccc(OC)cc34)c2c1", "inactive"],
  ["COC(=O)C1(C(=O)OC)C/C(C)=C(/C)SCCCS1", "inactive"],
  ["Cc1cccc2c(=O)c([Se]c3coc4c(C)cccc4c3=O)coc12", "inactive"],
  ["COc1c(C)c2c(c(=O)c3c(C)cccc3n2C)c2c1c(=O)c1c(C)cccc1n2C", "inactive"],
  ["COc1ccc(-c2c(N)n(-c3cccc(C(=O)O)c3)c(=O)c3cc([N+](=O)[O-])ccc23)cc1", "inactive"],
  ["O=C1c2ccccc2C(=O)N1CCSCC(CO)SCCN1C(=O)c2ccccc2C1=O (stereo not drawn)", "inactive"],
  ["N#CCCc1nc2ccc(Br)cc2c(=O)n1-c1ccc(O)c([N+](=O)[O-])c1", "inactive"],
  ["Nc1nc(Cl)cc(NCC2(CO)CC(O)C2)n1 (stereo not drawn)", "inactive"],
  ["COc1c(O)cc(O)c2c(=O)cc(-c3ccccc3)oc12", "inactive"],
  ["CC(=O)O[C@H]1CC[C@@]2(C)C(=CC[C@@H]3C2CC[C@]2(C)Nc4c(cnn4-c4ccccc4)CC32)C1 (stereo partly drawn)", "inactive"],
  ["O=C1Oc2ccccc2C(=O)/C1=C/NC(=S)NCCc1ccccc1", "inactive"],
  ["C=C1CCCC2[C@](C)(CC3=C(Cl)C(=O)C=C(OC)C3=O)C(C)CC[C@]12C (stereo partly drawn)", "inactive"],
  ["COc1ccc(-c2c(C#N)c(S)n(NS(=O)(=O)c3ccccc3)c(=O)c2C#N)cc1", "inactive"],
  ["[O-][S+](c1ccc(Cl)cc1)c1ccccc1C1=NCCN1 (stereo not drawn)", "inactive"],
  ["O=c1c2ccccc2nc(-c2ccccc2)n1/N=C/c1ccccc1[N+](=O)[O-]", "inactive"],
  ["C=CCOC1CC(n2cnc3c(N)ncnc32)OC1CO (stereo not drawn)", "inactive"],
  ["CC1=CC[C@@]2(C)CC[C@](O)(C(C)C)C2C(OC(=O)c2ccccc2)C1 (stereo partly drawn)", "inactive"],
  ["CN1CCN(c2nc3cc(F)ccc3n3cccc23)CC1", "inactive"],
  ["CSc1nc2c(nc(N)n2C2OCC(O)C(O)C2O)c(=O)n1C (stereo not drawn)", "inactive"],
  ["c1ccc(CCNc2ccccn2)nc1", "inactive"],
  ["C[n+]1c(-c2ccc(/C=C/C=N\\NC(=O)c3ccc(C(=O)N/N=C\\C=C\\c4ccc(-c5cn6ccccc6[n+]5C)cc4)cc3)cc2)cn2ccccc21", "inactive"],
  ["CCCCCCCCOC(CO)CO", "inactive"],
  ["Cc1ccccc1Nc1nc2c(s1)C(=O)c1ccccc1C2=O", "inactive"],
  ["CC1OC=CC(=O)C1O (stereo not drawn)", "inactive"],
  ["CC(C)=CCC[C@@H](C)C1=C(O)C(=O)C(C)=C(Nc2ccccc2Cl)C1=O", "inactive"],
  ["C=C1CCC23CC(CC[C@@H]2[C@@]12C[C@@H](c1ccoc1)OC2=O)OC3=O (stereo partly drawn)", "inactive"],
  ["COc1ccc(C(=O)C(c2ccc(OC)cc2)C2C(=O)Oc3ccccc32)cc1 (stereo not drawn)", "inactive"],
  ["CCOC(=O)NN1C(=O)C(=P(c2ccccc2)(c2ccccc2)c2ccccc2)C(C(=O)OCC)=C1C", "inactive"],
  ["CCOC(=O)N1CCC(=C2c3ccc(Cl)cc3CCc3cccnc32)CC1", "inactive"],
  ["Cc1cc(Cl)cc2c1NC(=O)C2(O)C(C)C(=O)c1ccc(Cl)cc1 (stereo not drawn)", "inactive"],
  ["COc1ccc(-c2nc(SCC(=O)N/N=C/c3ccc(O)c(OC)c3)[nH]c2-c2ccc(OC)cc2)cc1", "inactive"],
  ["Clc1ccc(OCC2NC3CCC2CC3)cn1 (stereo not drawn)", "inactive"],
  ["CC(NC1CCCC[C@@H]1O)c1ccccc1 (stereo partly drawn)", "inactive"],
  ["CN(C)/N=C(\\CCN1CCCC1)CC(c1ccccc1)c1c(O)c2ccccc2oc1=O (stereo not drawn)", "inactive"],
  ["O=C(O)/C=C/c1ccncc1", "inactive"],
  ["COc1cc2c(cc1OCCCCCCCCN1C(=O)c3cccc4cccc(c34)C1=O)N=C[C@@H]1CCCN1C2=O", "inactive"],
  ["O=C(N[C@@H](c1ccccc1)[C@@H](O)C(=O)OCc1ccc2c(c1)OCO2)c1ccccc1", "inactive"],
  ["COc1cc2c(cc1OC)C(=O)/C(=C/c1cc(C)c(O)c(C)c1)C2", "active"],
  ["Cc1cccc(C(C)(C)C)c1NC(=O)CCc1nnc(S)[nH]1", "inactive"],
  ["N#CC(C#N)=Cc1ccc(C(O)P(=O)(O)O)cc1 (stereo not drawn)", "inactive"],
  ["COC(OC)C1(c2ccccc2)Oc2ccccc2C1=O (stereo not drawn)", "inactive"],
  ["COC(=O)c1cc2/c(=N/O)c3ccccc3sc2o1", "inactive"]
]}

----------
system: TK-10; experiment: NCI tumour cell line growth inhibition, 48 h
Activity calls are given as the source filed them. Rule as the data show it: active = GI50 up to about 1.1 µM and inactive = higher.
Form field: GI50 (one value per entry).

{"columns": ["compound", "GI50"],
 "data": [
  ["Cc1ccccc1Nc1nc2c(s1)C(=O)c1ccccc1C2=O", "22.7 µM (inactive)"],
  ["O=C(CSc1c2ccccc2nc2ccccc12)Nc1ccccc1-c1ccccc1NC(=O)CSc1c2ccccc2nc2ccccc12", "60.4 µM (inactive)"],
  ["COc1ccc(-c2cc(C(=O)Nc3cccc(C(F)(F)F)c3)nc(S)n2)cc1", "> 100 µM (inactive)"],
  ["Cn1c2c(c3c(=O)[nH]ncc31)Cc1ccccc1-2", "5.81 µM (inactive)"],
  ["O=C(NNc1ccc([N+](=O)[O-])cc1[N+](=O)[O-])/C(O)=C\\C(=O)c1ccccc1", "22.4 µM (inactive)"],
  ["CC(C)C(C/C=C1/CC(CO)(COC(=O)C(C)(C)C)OC1=O)C(C)C (stereo not given)", "3.72 µM (inactive)"],
  ["CC(C)(C)c1ccc(OCCOc2ccc(C(C)(C)C)cc2N)c(N)c1", "69.3 µM (inactive)"],
  ["CCCC/C=C1\\CCC(CN2CCOCC2)C1=O (stereo not given)", "9.31 µM (inactive)"],
  ["COc1cc(C2C(C(=O)O)=C(COC(C)=O)Oc3cc4c(cc32)OCO4)cc(OC)c1OC(C)=O (stereo not given)", "> 100 µM (inactive)"],
  ["COc1c2c(c3c(c1C1OC(C)[C@@H](C)O1)CC(C)(C)O3)C(=O)c1ccccc1C2=O (stereo not given in full)", "> 100 µM (inactive)"]
]}

----------
tested on: SF-268; test: NCI tumour cell line growth inhibition, 48 h
The source made the active and inactive calls. Cut-off read from the data, not from the text of the source: active = GI50 up to about 1.1 µM and inactive = higher.
Labels: 1 (yes) (active), 0 (no) (inactive)

{"columns": ["molecule", "measured_on", "answer_label"],
 "data": [
  ["CCCC/C=C1\\CCC(CN2CCOCC2)C1=O (stereo not given)", "SF-268", "0 (no)"],
  ["Cc1cc(O)c2c(c1)C(=O)c1cc(O)cc(O)c1C2=O", "SF-268", "0 (no)"],
  ["C/C(=N\\N=C(/S)N(C)C)c1cccnn1", "SF-268", "1 (yes)"],
  ["O=C(O)C(Cl)(c1ccccc1)c1ccccc1", "SF-268", "0 (no)"],
  ["O=C1c2ccccc2-c2c1c(-c1cccc(Br)c1)nc1ccc3ccccc3c21", "SF-268", "0 (no)"],
  ["CCOC(=O)NC(=O)c1cn(CCSCCOC(=O)NCCCCCCNC(=O)OCCSCCn2cc(C(=O)NC(=O)OCC)c(=O)n(C)c2=O)c(=O)n(C)c1=O", "SF-268", "0 (no)"],
  ["COC(=O)c1cc2/c(=N/O)c3ccccc3sc2o1", "SF-268", "0 (no)"],
  ["O=C(O)c1c(CC(Cc2ccccc2)C(=O)O)ccc2c1CCC2 (stereo not given)", "SF-268", "0 (no)"],
  ["COCN1C(=O)[C@@H]2CCCN2C(=O)c2cc(OC)c(Cc3ccccc3)cc21", "SF-268", "0 (no)"],
  ["OCC(O)C(O)C(O)C(/C=N\\Nc1ncnc2ccc(Br)cc12)=N/Nc1ncnc2ccc(Br)cc12 (stereo not given)", "SF-268", "1 (yes)"]
]}
